Test system: Colony PTA22
Assay: Antibiotic susceptibility test
Type: cell-based, Lactiplantibacillus Plantarum
Details: Lactiplantibacillus plantarum, PTA22, 24 h, read-out: Minimum inhibitory concentration of the antibiotic to PTA22, 96-well, 37 C 24 h, OD600
Below: a set of entries, each annotated with reported MIC.
A number alone suffices; assume µg/mL.

Here is how some compounds turned out for MIC.
O=C(N[C@H](CO)[C@H](O)c1ccc([N+](=O)[O-])cc1)C(Cl)Cl ... 32
CCN1CCN(c2cc3c(cc2F)c(=O)c(C(=O)O)cn3C2CC2)CC1 ... 64

stdin: Would you kindly share the measured MIC for `CC1(C)S[C@@H]2[C@H](NC(=O)[C@H](N)c3ccccc3)C(=O)N2[C@H]1C(=O)O` ?
stdout: 0.5

====

System: Colony PTA22
Test: Antibiotic susceptibility test
Assay type: cell-based, Lactiplantibacillus Plantarum
Details: Lactiplantibacillus plantarum, PTA22, 24 h, read-out: Minimum inhibitory concentration of the antibiotic to PTA22, 96-well, 37 C 24 h, OD600
Experimental: To test bacterial susceptibility to antibiotics, such as Aminoglycosides antibiotics, Sulfonamide antibiotics, Quinolone antibiotics, Ampicillin, Cefotaxime, Chloramphenicol, Erythromycin, Rifampicin and Tetracycline, the experimental protocol were as follow. […] The initial absorbance at 600 nm (OD600) of each well was recorded. […] Next, the OD600 of each well was measured again to determine minimum inhibitory concentration.
recorded_metric: MIC

Here is how some compounds turned out for MIC.
NC[C@H]1O[C@H](O[C@H]2[C@H](O)[C@@H](O[C@H]3O[C@H](CO)[C@@H](O)[C@H](N)[C@H]3O)[C@H](N)C[C@@H]2N)[C@H](O)[C@@H](O)[C@@H]1O [Kanamycin] ... > 256 µg/mL
Cc1cc(NS(=O)(=O)c2ccc(N)cc2)no1 [Sulfamethoxazole] ... > 256 µg/mL

stdin: Would you kindly share the measured MIC for O=C(O)c1cn(C2CC2)c2cc(N3CCNCC3)c(F)cc2c1=O [Ciprofloxacin] ?
stdout: > 128 µg/mL
